Biological target: Caspase-3 (Homo sapiens)
Sequence (P42574 whole entry): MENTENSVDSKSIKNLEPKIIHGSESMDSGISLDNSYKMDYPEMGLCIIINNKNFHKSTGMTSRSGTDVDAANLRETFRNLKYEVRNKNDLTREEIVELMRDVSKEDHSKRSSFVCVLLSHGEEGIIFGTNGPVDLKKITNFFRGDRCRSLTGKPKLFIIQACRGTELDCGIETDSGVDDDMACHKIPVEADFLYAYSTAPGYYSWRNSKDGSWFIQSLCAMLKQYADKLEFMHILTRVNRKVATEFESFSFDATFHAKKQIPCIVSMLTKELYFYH
pIC50: −log10 of the molar value.
# if value of pIC50 reaches 8, tag criterion met; if it stays below, tag criterion not met

Task item: Check this compound for pIC50 at or above 8: `N#CC(C#N)=C1C(=O)N(Cc2ccc(OCCOCCF)cc2)c2ccc(S(=O)(=O)N3CCC[C@H]3COc3ccccc3)cc21`
Reply: criterion not met

Task item: Here is the next compound: `O=C1C(=O)N(Cc2cn(CCF)nn2)c2ccc(S(=O)(=O)N3CC[C@H]3COc3cccnc3)cc21`
Reply: criterion met

Task item: And then `O=C1C(=O)N(Cc2ccc(OCCF)cc2)c2ccc(S(=O)(=O)N3CCC[C@H]3COc3cccnc3)cc21` , what is it?
Reply: criterion met

Task item: Param item: `COc1ccc(CN2C(=O)C(=O)c3cc(S(=O)(=O)N4CC[C@H]4COc4cccnc4)ccc32)cc1`
Reply: criterion met

Task item: Entry to check: `O=C1C(=O)N(Cc2cn(CCF)nn2)c2ccc(S(=O)(=O)N3CCC[C@H]3COc3cccnc3)cc21`
Reply: criterion met

Task item: Next up: `O=C1C(=O)N(Cc2ccc(OCCF)cc2)c2ccc(S(=O)(=O)N3CC[C@H]3COc3cccnc3)cc21`
Reply: criterion met
